Attribution: ChEMBL document CHEMBL3399918

Measured LC50 of individual entries
# method: Cytotoxicity against human BEAS2B cells after 72 hrs by MTT assay
# Type: cell-based, BEAS-2B
# assay.conditions: beas-2b, 72 h
quantity.measured: LC50 (µM)

>  <structure.as.smiles>
O=C(Nc1ccc([Se][Se]c2ccc(NC(=O)OCC3=Cc4ccccc4S3(=O)=O)cc2)cc1)OCC1=Cc2ccccc2S1(=O)=O

>  <display.unit>
µM

>  <observed.value>
7.9

$$$$
>  <structure.as.smiles>
O=C(Nc1ccc([Se][Se]c2ccc(NC(=O)OCC3c4ccccc4-c4ccccc43)cc2)cc1)OCC1c2ccccc2-c2ccccc21

>  <display.unit>
µM

>  <observed.value>
64.1

$$$$
>  <structure.as.smiles>
CCCOC(=O)Nc1ccc([Se][Se]c2ccc(NC(=O)OCCC)cc2)cc1

>  <display.unit>
µM

>  <observed.value>
72.2

$$$$
>  <structure.as.smiles>
CC(C)COC(=O)Nc1ccc([Se][Se]c2ccc(NC(=O)OCC(C)C)cc2)cc1

>  <display.unit>
µM

>  <observed.value>
72.4

$$$$
>  <structure.as.smiles>
C=CCOC(=O)Nc1ccc([Se]C#N)cc1

>  <display.unit>
µM

>  <observed.value>
73.5

$$$$
>  <structure.as.smiles>
N#C[Se]c1ccc(NC(=O)OCc2ccccc2)cc1

>  <display.unit>
µM

>  <observed.value>
66.6

$$$$
>  <structure.as.smiles>
CCCCCCOC(=O)Nc1ccc([Se][Se]c2ccc(NC(=O)OCCCCCC)cc2)cc1

>  <display.unit>
µM

>  <observed.value>
51.8

$$$$
>  <structure.as.smiles>
O=C(Nc1ccc([Se][Se]c2ccc(NC(=O)Oc3ccc(F)cc3)cc2)cc1)Oc1ccc(F)cc1

>  <display.unit>
µM

>  <observed.value>
61.8

$$$$
>  <structure.as.smiles>
N#C[Se]c1ccc(NC(=O)Oc2ccc(F)cc2)cc1

>  <display.unit>
µM

>  <observed.value>
71.4

$$$$
>  <structure.as.smiles>
CCOC(=O)Nc1ccc([Se][Se]c2ccc(NC(=O)OCC)cc2)cc1

>  <display.unit>
µM

>  <observed.value>
71.9

$$$$

* * *

Measured CC50 of individual entries
# Tested on: MCF7
# method: Cytotoxicity against human MCF7 cells after 72 hrs by MTT assay
# Assay type: functional
# assay.conditions: MCF7, 72 h, read-out: LC50 (the source's name)

>  <structure.as.smiles>
O=C(Nc1ccc([Se][Se]c2ccc(NC(=O)OCC3=Cc4ccccc4S3(=O)=O)cc2)cc1)OCC1=Cc2ccccc2S1(=O)=O

>  <CC50 (µM)>
8.2

$$$$
>  <structure.as.smiles>
O=C(Nc1ccc([Se][Se]c2ccc(NC(=O)Oc3ccc(F)cc3)cc2)cc1)Oc1ccc(F)cc1

>  <CC50 (µM)>
64.3

$$$$
>  <structure.as.smiles>
Cc1ccc(OC(=O)Nc2ccc([Se]C#N)cc2)cc1

>  <CC50 (µM)>
69.8

$$$$
>  <structure.as.smiles>
CCCCOC(=O)Nc1ccc([Se]C#N)cc1

>  <CC50 (µM)>
59.7

$$$$
>  <structure.as.smiles>
C=CCOC(=O)Nc1ccc([Se][Se]c2ccc(NC(=O)OCC=C)cc2)cc1

>  <CC50 (µM)>
73.6

$$$$
>  <structure.as.smiles>
CCCCCCOC(=O)Nc1ccc([Se]C#N)cc1

>  <CC50 (µM)>
63.9

$$$$
>  <structure.as.smiles>
COc1ccc(OC(=O)Nc2ccc([Se]C#N)cc2)cc1

>  <CC50 (µM)>
74.1

$$$$
>  <structure.as.smiles>
O=C(Nc1ccc([Se][Se]c2ccc(NC(=O)Oc3ccccc3)cc2)cc1)Oc1ccccc1

>  <CC50 (µM)>
69

$$$$
>  <structure.as.smiles>
N#C[Se]c1ccc(NC(=O)Oc2ccc(Cl)cc2)cc1

>  <CC50 (µM)>
63.6

$$$$
>  <structure.as.smiles>
CCOC(=O)Nc1ccc([Se][Se]c2ccc(NC(=O)OCC)cc2)cc1

>  <CC50 (µM)>
68.3

$$$$

* * *

Measured GI50 of individual entries
# Tested on: HT-29
# method: Cytotoxicity against human HT-29 cells after 72 hrs by MTT assay
# Format: functional
# assay.conditions: HT-29, 72 h

>  <structure.as.smiles>
COc1ccc(OC(=O)Nc2ccc([Se]C#N)cc2)cc1

>  <GI50, µM>
13.6

$$$$
>  <structure.as.smiles>
N#C[Se]c1ccc(NC(=O)OCC2=Cc3ccccc3S2(=O)=O)cc1

>  <GI50, µM>
26.1

$$$$
>  <structure.as.smiles>
O=C(Nc1ccc([Se][Se]c2ccc(NC(=O)Oc3ccc(Cl)cc3)cc2)cc1)Oc1ccc(Cl)cc1

>  <GI50, µM>
9.9

$$$$
>  <structure.as.smiles>
COc1ccc(OC(=O)Nc2ccc([Se][Se]c3ccc(NC(=O)Oc4ccc(OC)cc4)cc3)cc2)cc1

>  <GI50, µM>
13

$$$$
>  <structure.as.smiles>
CCCCOC(=O)Nc1ccc([Se]C#N)cc1

>  <GI50, µM>
8.1

$$$$
>  <structure.as.smiles>
N#C[Se]c1ccc(NC(=O)Oc2ccccc2)cc1

>  <GI50, µM>
11.7

$$$$
>  <structure.as.smiles>
CCCOC(=O)Nc1ccc([Se][Se]c2ccc(NC(=O)OCCC)cc2)cc1

>  <GI50, µM>
18.3

$$$$
>  <structure.as.smiles>
C=CCOC(=O)Nc1ccc([Se]C#N)cc1

>  <GI50, µM>
24.5

$$$$
>  <structure.as.smiles>
N#C[Se]c1ccc(NC(=O)OCc2ccccc2)cc1

>  <GI50, µM>
13.3

$$$$
>  <structure.as.smiles>
CC(C)COC(=O)Nc1ccc([Se][Se]c2ccc(NC(=O)OCC(C)C)cc2)cc1

>  <GI50, µM>
19.9

$$$$
>  <structure.as.smiles>
O=C(Nc1ccc([Se][Se]c2ccc(NC(=O)OCc3ccc([N+](=O)[O-])cc3)cc2)cc1)OCc1ccc([N+](=O)[O-])cc1

>  <GI50, µM>
16.7

$$$$
>  <structure.as.smiles>
O=C(Nc1ccc([Se][Se]c2ccc(NC(=O)OCC3c4ccccc4-c4ccccc43)cc2)cc1)OCC1c2ccccc2-c2ccccc21

>  <GI50, µM>
17.8

$$$$
>  <structure.as.smiles>
CCOC(=O)Nc1ccc([Se][Se]c2ccc(NC(=O)OCC)cc2)cc1

>  <GI50, µM>
26

$$$$
>  <structure.as.smiles>
O=C(Nc1ccc([Se][Se]c2ccc(NC(=O)OCc3ccccc3)cc2)cc1)OCc1ccccc1

>  <GI50, µM>
1.8

$$$$
>  <structure.as.smiles>
CCOC(=O)Nc1ccc([Se]C#N)cc1

>  <GI50, µM>
9.3

$$$$
>  <structure.as.smiles>
C=CCOC(=O)Nc1ccc([Se][Se]c2ccc(NC(=O)OCC=C)cc2)cc1

>  <GI50, µM>
25.9

$$$$
>  <structure.as.smiles>
CCCCCCOC(=O)Nc1ccc([Se]C#N)cc1

>  <GI50, µM>
10.7

$$$$
>  <structure.as.smiles>
O=C(Nc1ccc([Se][Se]c2ccc(NC(=O)Oc3ccccc3)cc2)cc1)Oc1ccccc1

>  <GI50, µM>
13

$$$$
>  <structure.as.smiles>
O=C(Nc1ccc([Se][Se]c2ccc(NC(=O)OCC3=Cc4ccccc4S3(=O)=O)cc2)cc1)OCC1=Cc2ccccc2S1(=O)=O

>  <GI50, µM>
3

$$$$
>  <structure.as.smiles>
Cc1ccc(OC(=O)Nc2ccc([Se][Se]c3ccc(NC(=O)Oc4ccc(C)cc4)cc3)cc2)cc1

>  <GI50, µM>
7.9

$$$$
>  <structure.as.smiles>
CCCOC(=O)Nc1ccc([Se]C#N)cc1

>  <GI50, µM>
28.4

$$$$

* * *

# method: Cytotoxicity against human 184B5 cells after 72 hrs by MTT assay
# Type: cell-based
# assay.conditions: 184b5, 72 h
quantity.measured: LC50 (µM)

>  <structure.as.smiles>
N#C[Se]c1ccc(NC(=O)Oc2ccccc2)cc1

>  <quantity.measured>
LC50

>  <observed.value>
61.2

$$$$
>  <structure.as.smiles>
Cc1ccc(OC(=O)Nc2ccc([Se][Se]c3ccc(NC(=O)Oc4ccc(C)cc4)cc3)cc2)cc1

>  <quantity.measured>
LC50

>  <observed.value>
37.2

$$$$
>  <structure.as.smiles>
O=C(Nc1ccc([Se][Se]c2ccc(NC(=O)OCC3=Cc4ccccc4S3(=O)=O)cc2)cc1)OCC1=Cc2ccccc2S1(=O)=O

>  <quantity.measured>
LC50

>  <observed.value>
7.5

$$$$
>  <structure.as.smiles>
O=C(Nc1ccc([Se][Se]c2ccc(NC(=O)OCc3ccccc3)cc2)cc1)OCc1ccccc1

>  <quantity.measured>
LC50

>  <observed.value>
36.2

$$$$
>  <structure.as.smiles>
O=C(Nc1ccc([Se][Se]c2ccc(NC(=O)OCC3c4ccccc4-c4ccccc43)cc2)cc1)OCC1c2ccccc2-c2ccccc21

>  <quantity.measured>
LC50

>  <observed.value>
59.4

$$$$
>  <structure.as.smiles>
N#C[Se]c1ccc(NC(=O)OCc2ccc([N+](=O)[O-])cc2)cc1

>  <quantity.measured>
LC50

>  <observed.value>
58.5

$$$$
>  <structure.as.smiles>
COc1ccc(OC(=O)Nc2ccc([Se][Se]c3ccc(NC(=O)Oc4ccc(OC)cc4)cc3)cc2)cc1

>  <quantity.measured>
LC50

>  <observed.value>
43.5

$$$$
>  <structure.as.smiles>
CCCCOC(=O)Nc1ccc([Se]C#N)cc1

>  <quantity.measured>
LC50

>  <observed.value>
56.8

$$$$
>  <structure.as.smiles>
N#C[Se]c1ccc(NC(=O)OCc2ccccc2)cc1

>  <quantity.measured>
LC50

>  <observed.value>
60.7

$$$$
>  <structure.as.smiles>
N#C[Se]c1ccc(NC(=O)Oc2ccc(F)cc2)cc1

>  <quantity.measured>
LC50

>  <observed.value>
64.4

$$$$
>  <structure.as.smiles>
O=C(Nc1ccc([Se][Se]c2ccc(NC(=O)Oc3ccc(F)cc3)cc2)cc1)Oc1ccc(F)cc1

>  <quantity.measured>
LC50

>  <observed.value>
47.8

$$$$
>  <structure.as.smiles>
CC(C)COC(=O)Nc1ccc([Se]C#N)cc1

>  <quantity.measured>
LC50

>  <observed.value>
60.9

$$$$
>  <structure.as.smiles>
O=C(Nc1ccc([Se][Se]c2ccc(NC(=O)Oc3ccccc3)cc2)cc1)Oc1ccccc1

>  <quantity.measured>
LC50

>  <observed.value>
48.9

$$$$
>  <structure.as.smiles>
N#C[Se]c1ccc(NC(=O)OCC2c3ccccc3-c3ccccc32)cc1

>  <quantity.measured>
LC50

>  <observed.value>
62.5

$$$$
>  <structure.as.smiles>
CC(C)COC(=O)Nc1ccc([Se][Se]c2ccc(NC(=O)OCC(C)C)cc2)cc1

>  <quantity.measured>
LC50

>  <observed.value>
56.6

$$$$
>  <structure.as.smiles>
O=C(Nc1ccc([Se][Se]c2ccc(NC(=O)Oc3ccc(Cl)cc3)cc2)cc1)Oc1ccc(Cl)cc1

>  <quantity.measured>
LC50

>  <observed.value>
52.6

$$$$
>  <structure.as.smiles>
O=C(Nc1ccc([Se][Se]c2ccc(NC(=O)OCc3ccc([N+](=O)[O-])cc3)cc2)cc1)OCc1ccc([N+](=O)[O-])cc1

>  <quantity.measured>
LC50

>  <observed.value>
56.5

$$$$
>  <structure.as.smiles>
C=CCOC(=O)Nc1ccc([Se]C#N)cc1

>  <quantity.measured>
LC50

>  <observed.value>
53.8

$$$$
>  <structure.as.smiles>
N#C[Se]c1ccc(NC(=O)Oc2ccc(Cl)cc2)cc1

>  <quantity.measured>
LC50

>  <observed.value>
59.8

$$$$
>  <structure.as.smiles>
COc1ccc(OC(=O)Nc2ccc([Se]C#N)cc2)cc1

>  <quantity.measured>
LC50

>  <observed.value>
59.6

$$$$
